target: Interstitial collagenase (Homo sapiens); test: Inhibitory activity against human fibroblast collagenase (MMP-1)
Sequence (P03956 whole entry): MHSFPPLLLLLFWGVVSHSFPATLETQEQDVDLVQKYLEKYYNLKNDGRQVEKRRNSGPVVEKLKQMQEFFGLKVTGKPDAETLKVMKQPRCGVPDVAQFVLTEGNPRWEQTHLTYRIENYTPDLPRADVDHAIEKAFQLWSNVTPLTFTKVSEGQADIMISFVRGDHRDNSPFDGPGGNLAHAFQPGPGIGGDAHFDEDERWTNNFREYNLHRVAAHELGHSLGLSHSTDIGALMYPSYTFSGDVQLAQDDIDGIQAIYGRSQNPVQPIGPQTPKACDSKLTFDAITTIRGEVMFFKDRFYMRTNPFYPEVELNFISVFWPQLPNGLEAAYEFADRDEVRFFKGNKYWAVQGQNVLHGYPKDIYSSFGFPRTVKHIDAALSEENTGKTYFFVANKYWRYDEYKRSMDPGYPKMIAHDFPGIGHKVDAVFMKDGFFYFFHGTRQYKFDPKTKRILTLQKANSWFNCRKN
Where a name gives a salt, the structure may show the parent alone. Where a SMILES comes first, the peptide text is derived from it. [ ]: non-standard residue; d: D form. The star is where a group is joined. 2Thi = N[C@@H](Cc1cccs1)C(=O)O; Tfa = O=C(C(F)(F)F)*
Reported metric: IC50 (nM)

In [3]: df
Out[3]:
                                   molecule                          subject_of_test  test_value
0  CC(=O)N[C@@H](CS)C(=O)N[C@@H](Cc1cccs1)C(N)=O (Ac-Cys-[2Thi]-NH2)  Interstitial collagenase (Homo sapiens)        4000
1  NC(=O)[C@H](Cc1cccs1)NC(=O)[C@H](CS)NC(=O)c1ccc2nn[nH]c2c1  Interstitial collagenase (Homo sapiens)          34
2  NC(=O)[C@H](Cc1cccnc1)NC(=O)[C@H](CC(=O)O)NC(=O)c1ccc2[nH]nnc2c1  Interstitial collagenase (Homo sapiens)         453
3  CC(=O)N[C@@H](CS)C(=O)N[C@@H](Cc1c[nH]c2ccccc12)C(N)=O (Ac-Cys-Trp-NH2)  Interstitial collagenase (Homo sapiens)        5000
4  NC(=O)[C@H](Cc1ccccc1)NC(=O)[C@H](CS)NC(=O)c1ccc(=O)[nH]c1  Interstitial collagenase (Homo sapiens)          83

I = NC(=O)[C@H](Cc1ccccc1)NC(=O)[C@H](CS)NC(=O)C(F)(F)F (Tfa-Cys-Phe-NH2)
II = CC(=O)N[C@@H](CS)C(=O)N[C@H](C(N)=O)C(C)C (Ac-Cys-Val-NH2)
From the items above, decide which of I and II has the lower IC50 reading. Output the label that corresponds to your choice.
I

###

Observed IC50, system Matrix metalloproteinase-9 (Homo sapiens, UniProt P14780).
Where a SMILES comes first, the peptide text is derived from it. The star is where a group is joined. Hydrocinnamoyl = O=C(CCc1ccccc1)*
Reported metric: IC50 (nM)

Would you please look over these solved cases?
>>> df
                                   compound  reported_metric  measure_unit  test_value
0  NC(=O)[C@H](Cc1ccccc1)NC(=O)[C@H](CS)NC(=O)CCc1ccccc1 (Hydrocinnamoyl-Cys-Phe-NH2)             IC50            nM          38
1  NC(=O)[C@H](Cc1ccccc1)NC(=O)[C@H](CS)NC(=O)c1ccc2c(c1)OCO2             IC50            nM          19
2  NC(=O)[C@H](Cc1cccnc1)NC(=O)[C@H](CS)NC(=O)c1cn[nH]c1             IC50            nM          71

A = NC(=O)[C@H](Cc1ccccc1)NC(=O)[C@H](CS)NC(=O)c1ccoc1
B = NC(=O)[C@H](Cc1ccccc1)NC(=O)[C@H](CS)NC(=O)c1ccc2[nH]nnc2c1
From the items above, decide which of A and B has the lower IC50 reading. Output the label that corresponds to your choice.
B

###

Observed pIC50, system Matrix metalloproteinase-9 (Homo sapiens, UniProt P14780).
pIC50: −log10 of the molar value. *1 amine or outer side, *2 acyl side, *3 side chain or, on linkers, in order; H or OH if unused. Where a SMILES comes first, the peptide text is derived from it. The star is where a group is joined. CO = O=C([*:1])[*:2]; NHPh = c1ccc(N*)cc1
Reported metric: pIC50

                                   compound  test_value
0  NC(=O)[C@H](Cc1ccccc1)NC(=O)[C@H](CS)NC(=O)Nc1ccccc1 ({NHPh-CO}-Cys-Phe-NH2)        7.96
1  NC(=O)[C@H](Cc1ccccc1)NC(=O)[C@H](CS)NC(=O)c1ccc(-c2ccccc2)cc1        7.68
2  NC(=O)[C@H](Cc1ccccc1)NC(=O)[C@H](CS)NC(=O)c1ccc(=O)[nH]c1        7.39

1 = NC(=O)[C@H](Cc1ccccc1)NC(=O)[C@H](CS)NC(=O)c1ccncc1
2 = NC(=O)[C@H](Cc1ccccc1)NC(=O)[C@H](CS)NC(=O)c1cn[nH]c1
From the items above, decide which of 1 and 2 has the lower pIC50 reading. Output the label that corresponds to your choice.
2
(2: 7.15, 1: 7.39)
